- Test system: paternal Ube3a-YFP allele
- assay.notes: High-content imaging of paternal Ube3a-YFP unsilencing in primary cortical neurons
- Assay type: cell-based, mouse
- conditions.used: Mus musculus, Primary cortical neuron; concentration-response curves, 72 hr, n=4, mean±SEM; read-out: EC50 for unsilencing paternal Ube3a-YFP (FIG. 7)
EC50 listing for selected compounds.
measured.metric: EC50 (nM)

{"columns": ["test.smiles", "assayed.system", "measured.metric", "observed.measurement"],
 "data": [
  ["CCc1c2c(nc3ccc(OC(=O)N4CCC(N5CCCCC5)CC4)cc13)-c1cc3c(c(=O)n1C2)COC(=O)[C@]3(O)CC", "paternal Ube3a-YFP allele", "EC50", 996],
  ["CC[C@@]1(O)C(=O)OCc2c1cc1n(c2=O)Cc2cc3c(CN(C)C)c(O)ccc3nc2-1", "paternal Ube3a-YFP allele", "EC50", 55]
]}

----------
- Tested on: paternal Ube3a-YFP allele
- assay.notes: High-content imaging of paternal Ube3a-YFP unsilencing in primary cortical neurons
- Type: cell-based, mouse
- conditions.used: Mus musculus, Neuron; Table 3; unsilencing the paternal allele of Ube3a-YFP in cultured neurons, 72 h, 1 nM to 30 μM; read-out: Potency EC20
Quick rule for you: EC20 at 50 nM or higher means 1 (yes), lower means 0 (no).

{"columns": ["test.smiles", "label.class"],
 "data": [
  ["CC[C@@]1(O)C(=O)OCc2c1cc1n(c2=O)Cc2cc3c(CN(C)C)c(O)ccc3nc2-1", "1 (yes)"],
  ["CCc1c2c(nc3ccc(OC(=O)N4CCC(N5CCCCC5)CC4)cc13)-c1cc3c(c(=O)n1C2)COC(=O)[C@]3(O)CC", "1 (yes)"],
  ["COc1cc(NS(C)(=O)=O)ccc1Nc1c2ccccc2nc2ccccc12", "0 (no)"],
  ["CC[C@@]1(O)C(=O)OCc2c1cc1n(c2=O)Cc2c-1nc1ccc(O)cc1c2[Si](C)(C)C(C)(C)C", "1 (yes)"],
  ["CC[C@@]1(O)C(=O)OCc2c1cc1n(c2=O)Cc2cc3ccccc3nc2-1", "0 (no)"],
  ["C[C@@H](CN1CC(=O)NC(=O)C1)N1CC(=O)NC(=O)C1", "1 (yes)"]
]}

----------
- Test system: paternal Ube3a-YFP allele
- assay.notes: High-content imaging of paternal Ube3a-YFP unsilencing in primary cortical neurons
- Assay type: cell-based, mouse
- conditions.used: Mus musculus, Neuron; Table 3; unsilencing the paternal allele of Ube3a-YFP in cultured neurons, 72 h, 1 nM to 30 μM; read-out: Potency EC20
measured.metric: EC20 (nM)

{"columns": ["compound", "measured.metric", "units.text", "observed.measurement"],
 "data": [
  ["CC[C@@]1(O)C(=O)OCc2c1cc1n(c2=O)Cc2c-1nc1ccccc1c2CCNC(C)C", "EC20", "nM", 19],
  ["CC[C@@]1(O)C(=O)OCc2c1cc1n(c2=O)Cc2cc3c([N+](=O)[O-])cccc3nc2-1", "EC20", "nM", 62],
  ["COc1cc([C@@H]2c3cc4c(cc3[C@@H](O[C@@H]3O[C@@H]5CO[C@@H](C)O[C@H]5[C@H](O)[C@H]3O)[C@H]3COC(=O)[C@H]23)OCO4)cc(OC)c1O [Etoposide]", "EC20", "nM", 1600]
]}

----------
- Tested on: paternal Ube3a-YFP allele
- assay.notes: High-content imaging of paternal Ube3a-YFP unsilencing in primary cortical neurons
- Assay type: cell-based, mouse
- conditions.used: Table 1; Ube3a-YFP fluorescence intensity above control cells (0.2% DMSO treated); cortical neurons, 72 h

{"columns": ["compound", "units.text", "Efficacy Emax (fold over control)"],
 "data": [
  ["COc1cc2c3c(n(CCCNCCO)c(=O)c2cc1OC)-c1cc2c(cc1C3=O)OCO2", "fold over control", 1.76],
  ["CCc1c2c(nc3ccccc13)-c1cc3c(c(=O)n1C2)COC(=O)[C@]3(O)CC", "fold over control", 1.68],
  ["CC[C@@]1(O)C(=O)OCc2c1cc1n(c2=O)Cc2cc3cc(O)ccc3nc2-1 [10-Hydroxy-CPT]", "fold over control", 1.68],
  ["COc1cc2c3c(n(CCCN4CCOCC4)c(=O)c2cc1OC)-c1cc2c(cc1C3=O)OCO2", "fold over control", 1.65],
  ["COc1cc2c3c(n(CCCn4ccnc4)c(=O)c2cc1OC)-c1cc2c(cc1C3=O)OCO2", "fold over control", 1.82],
  ["CCc1c2c(nc3ccc(O)cc13)-c1cc3c(c(=O)n1C2)COC(=O)[C@]3(O)CC [7-Ethyl-10-Hydroxy-CPT]", "fold over control", 2.00]
]}
